system: K1 culture-adapted P. falciparum strain; assay: Antiplasmodial evaluation, SYBR Green I fluorescence-based drug susceptibility test; assay type: cell-based; conditions: Plasmodium falciparum; multi-resistant K1 strain of P. falciparum, 72 h incubation, three independent experiments; read-out: EC50 PfK1
pEC50: −log10 of the molar value.
RECORDED ENDPOINT: pEC50

{"MOLECULE": "CC(C)(C)Nc1nc2cc(-c3ccc(S(N)(=O)=O)cc3)sc2c(=O)[nH]1 [Compound 4l]", "QUAL": "<", "READOUT VALUE": 4.90}
{"MOLECULE": "C#Cc1cc2nc(NC(C)(C)C)[nH]c(=O)c2s1 [Compound 2f]", "QUAL": "<", "READOUT VALUE": 4.90}
{"MOLECULE": "CC(=O)Nc1ccc(-c2cc3nc(NC(C)(C)C)[nH]c(=O)c3s2)cc1 [Compound 4r]", "QUAL": "=", "READOUT VALUE": 5.41}
{"MOLECULE": "CC(C)Nc1nc2cc(-c3ccc(N)cc3)sc2c(=O)[nH]1 [Compound 4q]", "QUAL": "=", "READOUT VALUE": 5.22}
{"MOLECULE": "CC(C)(C)Nc1nc2cc(-c3ccc(O)cc3)sc2c(=O)[nH]1 [Compound 4d]", "QUAL": "=", "READOUT VALUE": 5.12}
{"MOLECULE": "CSc1ccc(-c2cc3nc(NC(C)(C)C)[nH]c(=O)c3s2)cc1 [Compound 4j]", "QUAL": "=", "READOUT VALUE": 6.00}
{"MOLECULE": "CC(C)(C)Nc1nc2cc(-c3ccc(N4CCCCC4)cc3)sc2c(=O)[nH]1 [Compound 4i]", "QUAL": "=", "READOUT VALUE": 5.39}
{"MOLECULE": "CC(C)(C)Nc1nc2cc(-c3cnc(N4CCOCC4)nc3)sc2c(=O)[nH]1 [Compound 4n]", "QUAL": "=", "READOUT VALUE": 5.68}
{"MOLECULE": "Cc1cccc(Nc2cc3nc(NC(C)(C)C)[nH]c(=O)c3s2)c1 [Compound 1b]", "QUAL": "=", "READOUT VALUE": 5.96}

###

experiment: Cytotoxic evaluation, MTT assay; type: cell-based; settings: HepG2 cells, human HepG2 cell line, three independent experiments
Recorded log10 of CC50 at 72 h, one value per entry.
RECORDED ENDPOINT: log10 of CC50 at 72 h (log10 of the value in µM)

{"SMILES NOTATION": "COc1ccc(Nc2cc3nc(NC(C)(C)C)[nH]c(=O)c3s2)cc1", "log10 of CC50 at 72 h": 1.38}
{"SMILES NOTATION": "Cc1ccc(C#Cc2cc3nc(NC(C)C)[nH]c(=O)c3s2)cc1", "log10 of CC50 at 72 h": 0.49}
{"SMILES NOTATION": "CN1CCN(CC#Cc2cc3nc(NC(C)(C)C)[nH]c(=O)c3s2)CC1", "log10 of CC50 at 72 h": 1.62}
{"SMILES NOTATION": "CN1CCN(c2ncc(-c3cc4nc(NC(C)(C)C)[nH]c(=O)c4s3)cn2)CC1", "log10 of CC50 at 72 h": 1.05}
{"SMILES NOTATION": "CC(C)(C)Nc1nc2cc(-c3ccc(O)cc3)sc2c(=O)[nH]1", "log10 of CC50 at 72 h": 1.09}
{"SMILES NOTATION": "CC(C)(C)Nc1nc2cc(N3CCCCC3)sc2c(=O)[nH]1", "log10 of CC50 at 72 h": 1.53}
{"SMILES NOTATION": "CC(C)(C)Nc1nc2cc(Nc3ccc(F)cc3)sc2c(=O)[nH]1", "log10 of CC50 at 72 h": 1.33}

###

test system: K1 culture-adapted P. falciparum strain; test: Antiplasmodial evaluation, SYBR Green I fluorescence-based drug susceptibility test; assay type: cell-based; details: Plasmodium falciparum; multi-resistant K1 strain of P. falciparum, 72 h incubation, three independent experiments; read-out: EC50 PfK1
Recorded EC50, one value per entry.
RECORDED ENDPOINT: EC50 (µM)

{"COMPOUND": "CC(C)(C)Nc1nc2cc(-c3ccc(S(C)(=N)=O)cc3)sc2c(=O)[nH]1 (centres unmarked)", "RECORDED ENDPOINT": "EC50", "QUAL": ">", "READOUT VALUE": 12.5}
{"COMPOUND": "CC(C)Nc1nc2cc(Br)sc2c(=O)[nH]1", "RECORDED ENDPOINT": "EC50", "QUAL": ">", "READOUT VALUE": 50}
{"COMPOUND": "Cc1ccc(C#Cc2cc3nc(NC(C)(C)C)[nH]c(=O)c3s2)cc1", "RECORDED ENDPOINT": "EC50", "QUAL": "=", "READOUT VALUE": 2.35}
{"COMPOUND": "CC(C)(C)Nc1nc2cc(Nc3ccc(F)cc3)sc2c(=O)[nH]1", "RECORDED ENDPOINT": "EC50", "QUAL": "=", "READOUT VALUE": 7.1}
{"COMPOUND": "Cc1ccc(Nc2cc3nc(NC(C)(C)C)[nH]c(=O)c3s2)cc1", "RECORDED ENDPOINT": "EC50", "QUAL": "=", "READOUT VALUE": 10.3}
{"COMPOUND": "COc1ccc(Nc2cc3nc(NC(C)(C)C)[nH]c(=O)c3s2)cc1", "RECORDED ENDPOINT": "EC50", "QUAL": "=", "READOUT VALUE": 7.2}
{"COMPOUND": "CN1CCN(c2ncc(-c3cc4nc(NC(C)(C)C)[nH]c(=O)c4s3)cn2)CC1", "RECORDED ENDPOINT": "EC50", "QUAL": "=", "READOUT VALUE": 4.4}
{"COMPOUND": "CC(C)(C)Nc1nc2cc(-c3ccc(F)c(Cl)c3)sc2c(=O)[nH]1", "RECORDED ENDPOINT": "EC50", "QUAL": "=", "READOUT VALUE": 2}
{"COMPOUND": "COC(=O)c1ccc(-c2cc3nc(NC(C)(C)C)[nH]c(=O)c3s2)cc1", "RECORDED ENDPOINT": "EC50", "QUAL": "=", "READOUT VALUE": 2.5}
{"COMPOUND": "CC(C)(C)Nc1nc2cc(N3CCOCC3)sc2c(=O)[nH]1", "RECORDED ENDPOINT": "EC50", "QUAL": "=", "READOUT VALUE": 4.5}
{"COMPOUND": "Cc1ccc(C#Cc2cc3nc(NC(C)C)[nH]c(=O)c3s2)cc1", "RECORDED ENDPOINT": "EC50", "QUAL": "=", "READOUT VALUE": 4.6}
{"COMPOUND": "Cc1ccccc1Nc1cc2nc(NC(C)(C)C)[nH]c(=O)c2s1", "RECORDED ENDPOINT": "EC50", "QUAL": "=", "READOUT VALUE": 4.3}
{"COMPOUND": "CC(C)(C)Nc1nc2cc(C#CCCO)sc2c(=O)[nH]1", "RECORDED ENDPOINT": "EC50", "QUAL": ">", "READOUT VALUE": 10}
{"COMPOUND": "CC(C)Nc1nc2cc(-c3ccc(F)c(Cl)c3)sc2c(=O)[nH]1", "RECORDED ENDPOINT": "EC50", "QUAL": "=", "READOUT VALUE": 3.6}

###

experiment: Microsomal stability; assay type: in vitro ADME, mouse; details: CD-1; in vitro, female mouse microsomes, 37 °C, pH 7.4; read-out: t1/2 (half-time, microsomal stability)

{"COMPOUND": "CC(C)(C)Nc1nc2cc(N3CCCCC3)sc2c(=O)[nH]1 [Compound 1g]", "half-life": "40 min"}
{"COMPOUND": "Cc1ccc(-c2cc3nc(NC(C)(C)C)[nH]c(=O)c3s2)cc1 [Compound M1, gamhepathiopine, reference compound]", "half-life": "11 min"}

###

Recorded CC50 at 72 h, one value per entry.
assay: Cytotoxic evaluation, MTT assay; format: cell-based; settings: HepG2 cells, human HepG2 cell line, three independent experiments

{"SMILES NOTATION": "COC(=O)c1ccc(-c2cc3nc(NC(C)(C)C)[nH]c(=O)c3s2)cc1", "UOM": "µM", "QUAL": ">", "CC50 at 72 h": 12.5}
{"SMILES NOTATION": "CC(C)(C)Nc1nc2cc(N3CCOCC3)sc2c(=O)[nH]1", "UOM": "µM", "QUAL": ">", "CC50 at 72 h": 50}
{"SMILES NOTATION": "Cc1ccc(C#Cc2cc3nc(NC(C)(C)C)[nH]c(=O)c3s2)cc1", "UOM": "µM", "QUAL": ">", "CC50 at 72 h": 12.5}
{"SMILES NOTATION": "CSc1ccc(-c2cc3nc(NC(C)(C)C)[nH]c(=O)c3s2)cc1", "UOM": "µM", "QUAL": ">", "CC50 at 72 h": 12.5}
{"SMILES NOTATION": "CC(C)(C)Nc1nc2cc(C#CC3CC3)sc2c(=O)[nH]1", "UOM": "µM", "QUAL": "=", "CC50 at 72 h": 20.8}
{"SMILES NOTATION": "CC(C)(C)Nc1nc2cc(-c3ccc(N4CCCCC4)cc3)sc2c(=O)[nH]1", "UOM": "µM", "QUAL": ">", "CC50 at 72 h": 6.25}
{"SMILES NOTATION": "CC(C)(C)Nc1nc2cc(Br)sc2c(=O)[nH]1", "UOM": "µM", "QUAL": "=", "CC50 at 72 h": 38.2}
{"SMILES NOTATION": "Cc1ccccc1Nc1cc2nc(NC(C)(C)C)[nH]c(=O)c2s1", "UOM": "µM", "QUAL": "=", "CC50 at 72 h": 14.1}
{"SMILES NOTATION": "CN1CCN(c2ccc(-c3cc4nc(NC(C)(C)C)[nH]c(=O)c4s3)cc2)CC1", "UOM": "µM", "QUAL": "=", "CC50 at 72 h": 5.8}
{"SMILES NOTATION": "CC(C)Nc1nc2cc(-c3ccc(N)cc3)sc2c(=O)[nH]1", "UOM": "µM", "QUAL": "=", "CC50 at 72 h": 11.3}
{"SMILES NOTATION": "CC(=O)Nc1ccc(-c2cc3nc(NC(C)(C)C)[nH]c(=O)c3s2)cc1", "UOM": "µM", "QUAL": "=", "CC50 at 72 h": 0.16}
{"SMILES NOTATION": "CC(C)(C)Nc1nc2cc(C#CCCO)sc2c(=O)[nH]1", "UOM": "µM", "QUAL": ">", "CC50 at 72 h": 50}
{"SMILES NOTATION": "Cc1cccc(Nc2cc3nc(NC(C)(C)C)[nH]c(=O)c3s2)c1", "UOM": "µM", "QUAL": "=", "CC50 at 72 h": 5.3}
{"SMILES NOTATION": "CC(C)(C)Nc1nc2cc(-c3ccc(N4CCOCC4)cc3)sc2c(=O)[nH]1", "UOM": "µM", "QUAL": "=", "CC50 at 72 h": 7.9}
{"SMILES NOTATION": "CC(C)(C)Nc1nc2cc(-c3ccc(S(=O)(=O)N4CCOCC4)cc3)sc2c(=O)[nH]1", "UOM": "µM", "QUAL": ">", "CC50 at 72 h": 12.5}
{"SMILES NOTATION": "CC(C)(C)Nc1nc2cc(-c3cnc(N4CCOCC4)nc3)sc2c(=O)[nH]1", "UOM": "µM", "QUAL": "=", "CC50 at 72 h": 26.4}
{"SMILES NOTATION": "CC(C)(C)Nc1nc2cc(-c3ccc(N)cc3)sc2c(=O)[nH]1", "UOM": "µM", "QUAL": "=", "CC50 at 72 h": 2.5}
{"SMILES NOTATION": "CC(C)Nc1nc2cc(C#Cc3ccccc3)sc2c(=O)[nH]1", "UOM": "µM", "QUAL": ">", "CC50 at 72 h": 12.5}

Source listed as paper PMC9264115.
